measured.on: psychLight2 (PSYLI2 cells) (Homo sapiens, UniProt P28223, DEL264-312/E264Q/I181A/I315S/INS316[…]/S314L)
Sequence (P28223 1-471 with tags or gaps with the stated changes): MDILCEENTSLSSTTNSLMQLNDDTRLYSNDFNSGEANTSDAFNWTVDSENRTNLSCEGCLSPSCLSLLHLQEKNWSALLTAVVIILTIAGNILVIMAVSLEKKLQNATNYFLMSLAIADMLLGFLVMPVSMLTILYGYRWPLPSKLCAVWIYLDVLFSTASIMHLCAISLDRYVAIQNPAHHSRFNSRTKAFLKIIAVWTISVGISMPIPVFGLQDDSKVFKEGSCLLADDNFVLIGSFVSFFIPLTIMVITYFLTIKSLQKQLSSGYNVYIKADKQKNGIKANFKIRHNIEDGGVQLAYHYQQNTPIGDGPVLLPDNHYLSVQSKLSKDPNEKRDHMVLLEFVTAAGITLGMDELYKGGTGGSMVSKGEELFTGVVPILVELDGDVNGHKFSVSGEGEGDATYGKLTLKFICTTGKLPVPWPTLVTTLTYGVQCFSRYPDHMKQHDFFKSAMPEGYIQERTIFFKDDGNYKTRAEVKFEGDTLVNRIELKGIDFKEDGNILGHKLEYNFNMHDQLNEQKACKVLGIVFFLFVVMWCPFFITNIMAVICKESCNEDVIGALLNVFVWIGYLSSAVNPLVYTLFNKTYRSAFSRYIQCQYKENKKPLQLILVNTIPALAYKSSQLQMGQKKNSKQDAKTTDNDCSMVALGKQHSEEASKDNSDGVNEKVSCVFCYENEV
Assay type: cell-based
test.readout: ligand score

| compound | observed |
| --- | --- |
| c1ccc(C2(N3CCCCC3)CCCCC2)cc1 [phencyclidine] | ~0 |
| CN(C)CCc1c[nH]c2ccc(Cl)cc12 [5-Cl-DMT, 5-chloro-N,N-dimethyltryptamine] | positive |
| COC(=O)[C@@H]1C[C@H](OC(C)=O)C(=O)[C@H]2[C@@]1(C)CC[C@H]1C(=O)O[C@H](c3ccoc3)C[C@]21C [salvinorin A] | ~0 |
| CN(C)CCc1c[nH]c2ccc(F)cc12 [5-F-DMT, 5-flouo-N,N-dimethyltryptamine] | positive |
